meta.source: PubChem BioAssay (NCI)

- Tested on: NCI-H522 lung
- TEST DETAILS: NCI-60 one-dose screen, 48 h (100 = growth as untreated, 0 = no growth, -100 = all killed)
- SETUP CONDITIONS: 10 µM unless noted
About 83,000 compounds went through this panel and 20% of them were active in at least one assay; those are over-represented in the sample as a whole.
MEASUREMENT TYPE: growth (%)
All answers are understood in %, so give the number only.

Dear colleague, I am looking for the recorded growth of the following compound: CNC(=O)c1cc(Oc2ccc(NC(=O)c3[nH]c(SC)nc3-c3ccc(F)cc3)cc2)ccn1
68

Which measured growth value corresponds to O=C(Cc1ccc(Nc2ccnc(C(F)(F)F)c2)cc1)N/N=C/c1ccccc1O ?
22.5

Sample Fc1ccc2nc(-c3ccc(-c4noc(-c5ccc(Cl)cc5)n4)cc3)[nH]c2c1 — what was its growth?
87.1

What measured growth goes with Cc1ccc(NC(=O)c2nc(S(C)=O)oc2-c2ccc(F)cc2)cc1Nc1nccc(-c2cccnc2)n1 (stereo not given) ?
7.97

Could you share which growth value was measured for COc1c(B(O)O)cccc1-c1nc2c(F)cc3n[nH]c(C)c3c2c2c1CCCC2 ?
9.41

###

- System: SF-295 CNS
- TEST DETAILS: NCI-60 one-dose screen, 48 h (100 = growth as untreated, 0 = no growth, -100 = all killed)
- SETUP CONDITIONS: 10 µM unless noted
Compounds without any hit were thinned out: in the full panel of roughly 83,000, 20% have a hit. Calls of active or inactive are those of the source. The calls were made as follows: active = growth percent below 10; inactive = the rest.
Would you kindly list growth for each of these molecules?

Any idea what its growth is? The molecule is Nc1cccc(S(=O)(=O)c2cccc(N)c2)c1
100% (inactive)

growth for Cc1ccc2cc3c(NC(=O)c4cccnc4)nn(C)c3nc2c1 ?
101% (inactive)

// lookup growth for CC(=O)OC1Oc2cc(C)c(C)cc2-c2oc(=O)c(-c3ccc(F)cc3)cc21 (stereo unspecified)
80.5% (inactive)

Data request, read-out growth, for Cc1ccc2nc(CN(CCN(Cc3nc4ccc(C)cc4[nH]3)Cc3nc4ccc(C)cc4[nH]3)Cc3nc4ccc(C)cc4[nH]3)[nH]c2c1
-86.8% (active)

Report growth for COc1ccc(/C=C2\N=C(c3cccnc3)N(c3ccccc3)NC2=O)cc1 please.
95.2% (inactive)

Any idea what its growth is? The molecule is COc1ccc(C2C3=C(COC3=O)N(CCO)c3cc(OC)c(OC)cc32)cc1 (stereo unspecified)
110% (inactive)

Which growth reading was recorded for the molecule ClCc1cccc(CSc2ncnc3c2ncn3Cc2cccc(CCl)c2)c1 ?
92% (inactive)

Reported growth for Cc1ccc(NC(=O)c2[nH]c(SCCN(C)C)nc2-c2ccc(F)cc2)cc1Nc1ccc2ncn(C)c(=O)c2c1 : what is it?
82.9% (inactive)

Name the recorded growth for COC(=O)C1(C)COP(=O)(NC23CC4CC(CC(C4)C2)C3)OC1 (stereo unspecified) .
104% (inactive)

Query (molecule): CCCCn1c(C)nc2ccc(Nc3nc(Cl)nc4nc[nH]c34)cc21 ; field requested: growth
76.3% (inactive)

For the molecule CCCOC(=O)C1c2cc3c(cc2CC(C)C1C(=O)OCCC)OCO3 (stereo unspecified) , what growth is on record?
83% (inactive)

Query: growth; subject: CC(C)NCCCCCNc1cc(O)cc2cccnc12
77.4% (inactive)

// query growth value for entry CN1CCN(Cc2ccc(NC(=O)c3ccc(C#N)c(C#Cc4cnc(N)c5ncccc45)c3)cc2C(F)(F)F)CC1
103% (inactive)

Sample CCN(CC)CCCC(C)Nc1cnc(C(=O)Nc2cc(C)cc3cccnc23)cn1 (stereo unspecified) — what was its growth?
98.9% (inactive)

Returns the measured growth for the input molecule. Input: CCOC(=O)NNc1cccc(Cl)c1
109% (inactive)

Dear colleague, I am looking for the recorded growth of the following molecule: NC(N)=N/N=C\c1cccc(OCc2ccccc2)c1
85.1% (inactive)

What measured growth goes with CCOc1cccc(/C=N/NC(=O)c2ccc(Nc3ccnc(C(F)(F)F)c3)cc2)c1O ?
8.46% (active)

Param item = O=C(/C=C/c1cn(-c2ccccc2)nc1-c1cccc(Nc2ccnc3cc(Cl)ccc23)c1)c1ccc2c(c1)OCO2 ; retrieve measured growth.
115% (inactive)

Requested field: growth. Item: COCCn1c(Nc2ccc(C(=O)NO)cc2)nc2ccccc21
61.9% (inactive)

Entry CC(C)(C)c1ccc(Cn2c(-c3nonc3N)nc3ccccc32)cc1 has what growth?
71.5% (inactive)

Record request: growth value, item COc1ccc(/C(=C\c2cc(OC)c(OC)c(OC)c2)C(=O)N2CCCNCC2)cc1
101% (inactive)
